test system: HCT-15 colon; assay: NCI-60 one-dose screen, 48 h; settings: 10 µM unless noted
This is part of a sample that, as a whole, favours compounds with a hit. Of some 83,000 tested, about 20% had one in any assay. The source made the active and inactive calls. The calls were made as follows: active = growth percent below 10; inactive = the rest.
Respond using exactly one of the listed classes: active, inactive

// known answers, use as guide
> print(dat)
                                   compound  class.name
1  O=C1C(Cl)=C(Nc2ccccc2)C(=O)C(Cl)=C1Nc1ccccc1    inactive
2                          NC(=S)NNC1CCCCC1    inactive
3  COc1ccc2c(c1)C(=O)/C(=C/c1cccc(OCC(=O)c3ccccc3)c1)O2    inactive
4      COc1cc(C(=O)C[n+]2ccccc2)ccc1OC(C)=O    inactive
5  Cc1cn(-c2nc3c(c(NCc4ccccc4)n2)COCC3)c2cccc(C(N)=O)c12    inactive
6  O=S(=O)(CCN1CCOCC1)Nc1cncc(-c2ccc3ncnc(Nc4ccc(F)c(Cl)c4)c3c2)c1    inactive

Inquiry: Called result for COc1cc(-c2nc(SCC(=O)Nc3ccc(C(C)=O)cc3)[nH]c(=O)c2C#N)cc(OC)c1OC
Reply text: inactive

Inquiry: Called result for C=CC(=O)NC(=O)Nc1ccccc1Cl
Reply text: inactive

Inquiry: Called result for O=C(Nc1ccc(-n2ccc3c(NC(=O)c4ccccc4)ncnc32)cc1)Nc1ccc(Cl)c(C(F)(F)F)c1
Reply text: active

Inquiry: Called result for COC(=O)c1ccc2c(c1)Oc1ccc(Cl)cc1-c1cc(C)nn1-2
Reply text: inactive

Inquiry: Called result for O=c1[nH]ccc2nc(N3CCC(O)CC3)nc(Nc3cccc(C(F)(F)F)c3)c12
Reply text: inactive

Inquiry: Called result for OCc1cn(-c2ccc(Cl)cc2)nc1-c1ccc(O)cc1
Reply text: inactive

Inquiry: Called result for CCCCNC(=O)Oc1ccc(/C(=C(/CC)Cc2ccccc2)c2ccc(OCCCN(C)C)cc2)cc1
Reply text: inactive

Inquiry: Called result for COc1ccc(/C=C2\CS(=O)(=O)C/C(=C\c3ccc(OC)cc3)C2=O)cc1
Reply text: active

Inquiry: Called result for ClC1c2ccccc2CCc2ccccc21
Reply text: inactive

====

tested on: 786-0 renal; test: NCI-60 one-dose screen, 48 h (100 = growth as untreated, 0 = no growth, -100 = all killed); conditions: 10 µM unless noted
About 83,000 compounds went through this panel and 20% of them were active in at least one assay; those are over-represented in the sample as a whole.
compounds and their reported growth
Respond with the bare value in %.

Example entries and their recorded answers appear below.
> print(dat)
                                   compound  value.measured
1  C=C1C(=O)O[C@H]2[C@H]1CC/C(COC(=O)c1cccc3ccccc13)=C\CC[C@@]1(C)O[C@@H]21           -77.9
2  O=C(O)c1ccc(-c2nn(-c3ccc(C(=O)O)cc3)cc2/C=N/Nc2c(F)c(F)cc(F)c2F)cc1             112
3  CCCCOc1nc2ccc(Cl)cc2cc1/C=C/C(=O)/C=C/c1ccc(Cl)cc1            94.1
4  Cc1ccn2cc(Cc3cc(=O)oc4c3ccc3ccccc34)c(=O)nc2c1            95.5
5  NS(=O)(=O)c1ccc(-n2nc(-c3ccc(Cl)cc3)ccc2=O)cc1            92.9
6  COc1ccc(-c2[nH]c3ccccc3c2/C=C(\C#N)S(=O)(=O)c2ccccc2)cc1            22.1

Inquiry: Fetch value of growth on 786-0 renal for O=C(c1cc(-c2ccc(Cl)cc2)nc2ccccc12)N1N=C(c2ccccc2)CC1c1cc(-c2ccccc2)nn1-c1ccccc1 (centres undefined) .
Reply text: 90

Inquiry: Fetch value of growth on 786-0 renal for O=C(O)c1ccc(-n2cc(/C=N/Nc3ccc(Cl)cc3)c(-c3ccc(F)c(F)c3)n2)cc1 .
Reply text: 67.2

Inquiry: Fetch value of growth on 786-0 renal for Fc1ccc(/C=N/n2c(-c3cc(Cl)cc(Cl)c3Cl)nn(CNc3ccc(Cl)nn3)c2=S)cc1 .
Reply text: 85.5
